testedOn: human recombinant GSK-3β (Homo sapiens, UniProt P49841)
Construct: purchased ProSpec-Tany TechnoGene Ltd., Ness-Ziona, Israel
Sequence (P49841 whole entry): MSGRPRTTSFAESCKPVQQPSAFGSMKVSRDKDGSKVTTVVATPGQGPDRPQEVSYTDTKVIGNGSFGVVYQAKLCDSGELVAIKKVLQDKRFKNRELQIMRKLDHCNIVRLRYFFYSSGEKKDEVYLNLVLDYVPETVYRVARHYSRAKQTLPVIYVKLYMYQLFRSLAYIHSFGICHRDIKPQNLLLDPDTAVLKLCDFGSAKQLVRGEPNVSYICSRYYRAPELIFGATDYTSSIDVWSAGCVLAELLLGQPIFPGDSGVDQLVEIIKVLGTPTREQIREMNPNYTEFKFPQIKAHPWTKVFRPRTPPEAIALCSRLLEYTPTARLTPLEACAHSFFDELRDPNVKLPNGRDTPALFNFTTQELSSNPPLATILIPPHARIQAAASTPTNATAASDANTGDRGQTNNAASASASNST
protocol: GSK-3β enzyme inhibition assay (Kinase-Glo luminescent kinase assay)
Type: biochemical
runParameters: IC50 (Mean ± SEM), GSK-3β inhibition, pure compounds; mean ± SEM of triplicate experiments
outcomeMeasure: IC50 (µM)
// units = µM; emit number, no label

| molecule | outcomeMeasure | quantitativeReadout |
| --- | --- | --- |
| O=C(C=Cc1ccc(O)c2c1C(C(=O)OC(Cc1ccc(O)c(O)c1)C(=O)O)C(c1ccc(O)c(O)c1)O2)OC(Cc1ccc(O)c(O)c1)C(=O)O (centres unmarked) | IC50 | 6.97 |

// moving on: another record for IC50
Param item = O=c1cc(-c2ccc(O)c(O)c2)oc2cc(O)cc(O)c12 [Luteolin, reference compound] ; retrieve measured IC50. 2.18

###

testedOn: human recombinant GSK-3β (Homo sapiens)
Construct: purchased ProSpec-Tany TechnoGene Ltd., Ness-Ziona, Israel
protocol: GSK-3β enzyme kinetics (Lineweaver–Burk and secondary plots, varying ATP or GSM substrate)
Format: biochemical
runParameters: Ki, muscle glycogen synthase (GSM)-competitive inhibition, constant ATP (1 μM), varying GSM substrate (12.5, 25, 50 μM); from secondary plots
outcomeMeasure: pKi
// pKi is dimensionless: -log10 of concentration (M)

Param item = O=C(C=Cc1ccc(O)c2c1C(C(=O)OC(Cc1ccc(O)c(O)c1)C(=O)O)C(c1ccc(O)c(O)c1)O2)OC(Cc1ccc(O)c(O)c1)C(=O)O (stereo not shown) ; retrieve measured pKi. 5.20

###

testedOn: human recombinant GSK-3β (Homo sapiens, UniProt P49841)
Construct: purchased ProSpec-Tany TechnoGene Ltd., Ness-Ziona, Israel
protocol: GSK-3β enzyme inhibition assay (Kinase-Glo luminescent kinase assay)
Assay type: biochemical
runParameters: pure compounds; mean ± SEM of triplicate experiments; read-out: IC50 (Mean ± SEM), GSK-3β inhibition
outcomeMeasure: IC50 (µM)
// units = µM; emit number, no label

| compound | IC50, µM |
| --- | --- |
| O=C(O)/C=C/c1ccc(O)c(O)c1 [Caffeic acid] | 425 |

// moving on: another record for IC50
Param item = O=C(/C=C/c1ccc(O)c(O)c1)O[C@H](Cc1ccc(O)c(O)c1)C(=O)O [Rosmarinic acid] ; retrieve measured IC50. 135

###

testedOn: human recombinant GSK-3β (Homo sapiens)
Construct: purchased ProSpec-Tany TechnoGene Ltd., Ness-Ziona, Israel
protocol: GSK-3β enzyme kinetics (Lineweaver–Burk and secondary plots, varying ATP or GSM substrate)
Type: biochemical
runParameters: Ki, ATP-competitive inhibition, constant GSM substrate (25 μM), varying ATP (0.5, 1, 2 μM); from secondary plots
outcomeMeasure: Ki (µM)
// units = µM; emit number, no label

Request: Ki, test system human recombinant GSK-3β (Homo sapiens), entry O=C(C=Cc1ccc(O)c2c1C(C(=O)OC(Cc1ccc(O)c(O)c1)C(=O)O)C(c1ccc(O)c(O)c1)O2)OC(Cc1ccc(O)c(O)c1)C(=O)O (stereo not shown) [Salvianolic acid B] 5.44
